# measurement_protocol: Therapeutic index in infected mice (antimalaria activity compared with semi-chronic toxicity)
# Format: in vivo
# condition: mouse, in vivo, i.p. or s.c., twice a day for four days, ratio of activity over toxicity (LD50)
Cut-off 20 on selectivity ratio, inclusive. At or above means fulfilled; below means not fulfilled.

Qu. Evaluate CCC[N+](C)(CC)CCCCCCCCCCCCCC[N+](C)(CC)CCC (centres unmarked) [EXAMPLE 1] : selectivity ratio at minimum 20?
Ans. fulfilled

Qu. Evaluate CCC[N+](CCC)(CCO)CCCCCCCCCCCCCCCC[N+](CCC)(CCC)CCO.[Br-].[Br-] [EXAMPLE 29] : selectivity ratio at minimum 20?
Ans. not fulfilled

Qu. Evaluate C[N+]1(CCCCCCCCCCCCCCCC[N+]2(C)CCCC2)CCCC1 [EXAMPLE 17] : selectivity ratio at minimum 20?
Ans. not fulfilled

Qu. Evaluate C[N+]1(CCCCCCCCCCCCCC[N+]2(C)CCCC2)CCCC1 [EXAMPLE 16] : selectivity ratio at minimum 20?
Ans. not fulfilled

Qu. Evaluate CC[N+](C)(CC)CCCCCCCCCCCCCCCC[N+](C)(CC)CC [EXAMPLE 13] : selectivity ratio at minimum 20?
Ans. not fulfilled

Qu. Evaluate CCC[N+](C)(CC)CCCCCCCCCCCCCCCCCCCC[N+](C)(CC)CCC.[Br-].[Br-] (centres unmarked) [EXAMPLE 6] : selectivity ratio at minimum 20?
Ans. not fulfilled
